System: BaF3
measurement_protocol: Antiproliferative activity against mouse BaF3 cells assessed as cell growth inhibition incubated for 72 hrs by CCK-8 assay
Format: functional
Decide using GI50 alone. Strictly below 2 µM: label 1. Equal to or above 2 µM: label 0.

{"item_smiles": "CNCCN(C)c1cc(Oc2ccc(NC(=O)Nc3ccc(C)c(C(F)(F)F)c3)cc2)ncn1", "test_system": "BaF3", "answer_label": "label 0"}
{"item_smiles": "CC(=O)Nc1cc(Oc2ccc(CC(=O)Nc3ccccc3)cc2)ncn1", "test_system": "BaF3", "answer_label": "label 0"}
{"item_smiles": "COc1ccc(CNc2cc(Oc3ccc(NC(=O)Nc4ccc(C)c(C(F)(F)F)c4)cc3)ncn2)cc1", "test_system": "BaF3", "answer_label": "label 1"}
{"item_smiles": "Cc1ccc(NC(=O)Nc2ccc(Oc3cc(NCCN)ncn3)cc2)cc1C(F)(F)F", "test_system": "BaF3", "answer_label": "label 0"}
{"item_smiles": "CC(=O)Nc1cc(Oc2ccc(NC(=O)Cc3ccc(C(F)(F)F)cc3Cl)cc2)ncn1", "test_system": "BaF3", "answer_label": "label 0"}
{"item_smiles": "CC(=O)Nc1cc(Oc2ccc(NC(=O)Cc3c(Cl)cccc3Cl)cc2)ncn1", "test_system": "BaF3", "answer_label": "label 0"}
{"item_smiles": "CC(=O)Nc1cc(Oc2ccc(NC(=O)Cc3ccc(-c4ccccc4)cc3)cc2)ncn1", "test_system": "BaF3", "answer_label": "label 0"}
{"item_smiles": "CCN1CCN(Cc2ccc(NC(=O)Nc3ccc(Oc4cc(NC(C)=O)ncn4)cc3)cc2C(F)(F)F)CC1", "test_system": "BaF3", "answer_label": "label 1"}
{"item_smiles": "C=CC(=O)Nc1cc(Oc2ccc(NC(=O)Nc3ccc(C)c(C(F)(F)F)c3)cc2)ncn1", "test_system": "BaF3", "answer_label": "label 1"}
{"item_smiles": "COc1cc2ncnc(Oc3ccc(CC(=O)Nc4cnn(C(C)C)c4)cc3)c2cc1OC", "test_system": "BaF3", "answer_label": "label 0"}
{"item_smiles": "Cc1ccc(NC(=O)Nc2ccc(Oc3cc(N(C)CCO)ncn3)cc2)cc1C(F)(F)F", "test_system": "BaF3", "answer_label": "label 0"}
{"item_smiles": "CC(=O)Nc1cc(Oc2ccc(NC(=O)Cc3ccccc3C(F)(F)F)cc2)ncn1", "test_system": "BaF3", "answer_label": "label 0"}
{"item_smiles": "Cc1ccc(NC(=O)Nc2ccc(Oc3cc(NCc4ccccc4)ncn3)cc2)cc1C(F)(F)F", "test_system": "BaF3", "answer_label": "label 0"}
{"item_smiles": "Cc1ccc(NC(=O)Nc2ccc(Oc3cc(N4CCNC[C@H]4C)ncn3)cc2)cc1C(F)(F)F", "test_system": "BaF3", "answer_label": "label 0"}
{"item_smiles": "CC(=O)Nc1cc(Oc2ccc(CC(=O)Nc3ccc(C)c(C(F)(F)F)c3)cc2)ncn1", "test_system": "BaF3", "answer_label": "label 0"}
